B1: DLC1 (parent)
chain: AEVVKIRDSFSNQNTETKDTKSR

# Variants of: B1
# Protocol Details: protein stability index of a GFP-peptide fusion (GPS, HEK-293T) (PSI 1-6); higher = more stable;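 further: lentivirally expressed fusions sorted by FACS into six bins by GFP to DsRed ratio, PSI derived from sequencing read proportions per bin multiplied by bin number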
# Condition: c terminus: native
Each record's protein stability index is compared with low class = under 2, middle class = from 2 up to 3, high class = 3 and over to give its class.

# Mutant Name, Assigned Label
data = [
    ("R7W", "low class"),
    ("T15C", "middle class"),
    ("D8G", "middle class"),
    ("Q13G", "middle class"),
    ("V3R", "low class"),
    ("F10E", "high class"),
    ("T20G", "middle class"),
    ("T17D", "low class"),
    ("F10Y", "middle class"),
    ("Q13H", "middle class"),
    ("V4T", "middle class"),
    ("K18T", "middle class"),
    ("S22N", "middle class"),
    ("D19S", "middle class"),
    ("D8K", "middle class"),
    ("A1S", "low class"),
    ("Q13R", "high class"),
    ("S11M", "low class"),
    ("D19C", "low class"),
    ("E16F", "high class"),
    ("F10A", "high class"),
    ("E16Y", "low class"),
    ("K21W", "high class"),
    ("S22E", "high class"),
    ("A1V", "low class"),
    ("K18M", "low class"),
    ("E16L", "low class"),
    ("N14F", "low class"),
    ("K18R", "low class"),
    ("R7P", "high class"),
    ("E2Y", "low class"),
    ("V3P", "high class"),
    ("V3F", "middle class"),
    ("T17E", "middle class"),
    ("V3E", "middle class"),
    ("A1M", "middle class"),
    ("S9F", "low class"),
    ("R7Y", "low class"),
    ("D8S", "low class"),
]

Recorded values, source the supplement of paper PMC10567573.
